System: Cytochrome P450 enzyme activity (ethoxyresorufin-O-deethylase activity)
PROTOCOL_NOTES: Dioxin-induced EROD (cytochrome P450 enzyme) activity inhibition in Hep G2 cells
Assay type: cell-based
CONDITION_SUMMARY: Homo sapiens, HepG2, 24 h, read-out: Dioxin-induced EROD activity inhibition IC50
# if measured IC50 < 100 nM: Condition met  # else: Condition not met

{"columns": ["MOLECULE", "ASSIGNED_LABEL"],
 "data": [
  ["Cc1ccccc1N=Nc1ccc(NC(=O)C(C)C)c(C)c1 [Compound 5]", "Condition not met"]
]}

Is IC50 of Cc1ccccc1N=Nc1ccc(NC(=O)c2ccnn2C)c(C)c1 [Compound 2] strictly below 100 nM?
Condition met

Problem: For the molecule Cc1ccccc1N=Nc1ccc(NC(=O)c2ccc(F)cc2)c(C)c1 [Compound 4] , is IC50 under 100 nM?
Condition not met

Please check: IC50 for CCCCNC(=O)Nc1ccc(N=Nc2ccccc2C)cc1C [Compound 8] , strictly under 100 nM or not?
Condition not met

For this molecule, is IC50 lower than 100 nM? CC(=O)N(C(C)=O)c1ccc(N=Nc2ccccc2C)cc1C [Compound 3]
Condition met

Take the molecule Cc1ccccc1N=Nc1ccc(NC(=O)c2cccs2)c(C)c1 [Compound 6] and say whether its IC50 is less than 100 nM.
Condition not met

Attribution: patent US20070032458A1
